test system: UACC-62 melanoma; assay: NCI tumour cell line growth inhibition, 48 h
Assignment: determine reported TGI for the given compounds.
Answers are plain numbers, in µM.

Look at each compound and report its TGI.
1. CNC12C3C4C1C1C2C3C41C(=O)N[C@H](C(=O)N(C)[C@H](C[C@@H](OC(C)=O)c1nc(C(=O)N[C@@H](Cc2ccccc2)C[C@H](C)C(=O)OC)cs1)C(C)C)C1CC1 (some centres undefined)
2. C[CH2][Ge]([CH2]C)([CH2]C)[O]C(=O)C([O][Ge]([CH2]C)([CH2]C)[CH2]C)c1ccccc1 (centres undefined)
3. O=S(=O)([O-])[O-].[Fe+2].[OH2+]c1c(Cl)cc(Cl)cc1/C=N/Nc1ccccn1

[2.98, 30.7, 3.38]

Test system UACC-62 melanoma; read-out TGI; what value for `O=[N+]([O-])c1ccc2nc3ccscc-3c2c1` ?
65.6
